compounds and their reported fraction unbound
# protocolDescription: Protein binding in ICR mouse plasma by equilibrium dialysis
# Type: ADME, cell-free
# conditionSummary: read-out: PPB (converted)
Please reply with the number alone, leaving off any unit.

OCCOCc1cn(CCNc2nonc2/C(=N/O)Nc2ccc(F)c(Br)c2)nn1: 0.0968

Then there is this compound:
CC(O)c1cn(CCNc2nonc2/C(=N/O)Nc2ccc(F)c(Br)c2)nn1 (configuration not stated) yielded fraction unbound of 0.0584

====

# protocolDescription: Half life in monkey liver microsomes
# Type: ADME, Macaca mulatta, Microsome
# conditionSummary: rhesus monkey
observationType: half-life (min)
The reply should be a number in min, with the unit left off.

OCCOCc1cn(CCNc2nonc2/C(=N/O)Nc2ccc(F)c(Br)c2)nn1: 38.6

Now take the following compound into account.
For reference, reported half-life for CC(O)c1cn(CCNc2nonc2/C(=N/O)Nc2ccc(F)c(Br)c2)nn1 (configuration not stated) stands at 68.8

====

# experimentalTarget: Indoleamine 2,3-dioxygenase 2 (Homo sapiens)
# Sequence (whole entry): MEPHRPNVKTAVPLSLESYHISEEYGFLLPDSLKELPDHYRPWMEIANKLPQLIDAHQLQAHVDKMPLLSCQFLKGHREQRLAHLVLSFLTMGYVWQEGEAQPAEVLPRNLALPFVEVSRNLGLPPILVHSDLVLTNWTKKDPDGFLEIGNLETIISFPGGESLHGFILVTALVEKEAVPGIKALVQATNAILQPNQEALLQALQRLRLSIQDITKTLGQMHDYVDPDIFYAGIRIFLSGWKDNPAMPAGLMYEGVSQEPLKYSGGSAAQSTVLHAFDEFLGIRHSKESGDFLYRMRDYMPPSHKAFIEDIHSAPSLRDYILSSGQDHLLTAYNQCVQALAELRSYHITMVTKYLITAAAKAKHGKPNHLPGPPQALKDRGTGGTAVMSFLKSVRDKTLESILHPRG
# protocolDescription: Inhibition of IDO2 (unknown origin) assessed as reduction in kynurenine formation using L-tryptophan as substrate by methylene blue reagent based assay relative to control
# Set-up: concentration or dose not given beside the values
# conditionSummary: concentration not given here
// reported inhibition for each item listed
// note: answer is a bare numeric in %

Examples from the recorded data:
COc1ccc(-c2cn(CCNc3nonc3/C(=N/O)Nc3ccc(F)c(Br)c3)nn2)cc1: 15
Cc1ccc(-c2cn(CCNc3nonc3/C(=N/O)Nc3ccc(F)c(Br)c3)nn2)cc1: 14
O/N=C(\Nc1ccc(F)c(Br)c1)c1nonc1NCCn1cc(-c2ccccc2)nn1: 4
COCc1cn(CCNc2nonc2/C(=N/O)Nc2ccc(F)c(Br)c2)nn1: 7
O/N=C(\Nc1ccc(F)c(Br)c1)c1nonc1NCCn1cc(C2CC2)nn1: 10
O/N=C(\Nc1ccc(F)c(Br)c1)c1nonc1NCCn1cc(-c2cccc(O)c2)nn1: 13

Please examine the following record next.
Summary: Nc1cccc(-c2cn(CCNc3nonc3/C(=N/O)Nc3ccc(F)c(Br)c3)nn2)c1 , Indoleamine 2,3-dioxygenase 2 (Homo sapiens), inhibition = 12

====

Recorded Tmax by entry
# protocolDescription: Tmax in Sprague-Dawley rat at 50 mg/kg, po
# Type: ADME, organism-based
# conditionSummary: in vivo
# answer = value followed by unit

CC(O)c1cn(CCNc2nonc2/C(=N/O)Nc2ccc(F)c(Br)c2)nn1 (configuration not stated): 25.2 min

Record OCCOCc1cn(CCNc2nonc2/C(=N/O)Nc2ccc(F)c(Br)c2)nn1 , field Tmax: 78 min

====

# protocolDescription: Metabolic stability in dog liver microsomes assessed as rate constant
# Format: ADME, Canis lupus familiaris, Microsome
observationType: k el (s⁻¹)
Give your result in s⁻¹ as a bare value.

CC(O)c1cn(CCNc2nonc2/C(=N/O)Nc2ccc(F)c(Br)c2)nn1 (configuration not stated): 0.00218

k el reading for OCCOCc1cn(CCNc2nonc2/C(=N/O)Nc2ccc(F)c(Br)c2)nn1 : 0.00205

====

Quick reference: Papp B→A of the listed items.
# protocolDescription: Apparent permeability across basolateral to apical side in human Caco-2 cells
# Assay type: ADME, cell-based
Hey, just the number and the unit after it is fine.

OCCOCc1cn(CCNc2nonc2/C(=N/O)Nc2ccc(F)c(Br)c2)nn1: 46 ×10⁻⁶ cm/s

Please find the next compound below.
Please fill in: Papp B→A reported for CC(O)c1cn(CCNc2nonc2/C(=N/O)Nc2ccc(F)c(Br)c2)nn1 (configuration not stated) = 80.9 ×10⁻⁶ cm/s

====

# protocolDescription: Cmax in Sprague-Dawley rat at 50 mg/kg, po
# Type: ADME, organism-based
# Design: dose 50 mg/kg, route po
# conditionSummary: in vivo
observationType: Cmax (ng/mL)
# unit: ng/mL | format: bare number

CC(O)c1cn(CCNc2nonc2/C(=N/O)Nc2ccc(F)c(Br)c2)nn1 (configuration not stated): 2730

Next compound, Cmax to be filled in.
Cmax reported for this compound OCCOCc1cn(CCNc2nonc2/C(=N/O)Nc2ccc(F)c(Br)c2)nn1 : 1040

====

# protocolDescription: Protein binding in Sprague-Dawley rat plasma by equilibrium dialysis
# Format: ADME, cell-free
# conditionSummary: read-out: PPB (converted)
observationType: fraction unbound
Give the value as a plain number.

CC(O)c1cn(CCNc2nonc2/C(=N/O)Nc2ccc(F)c(Br)c2)nn1 (configuration not stated): 0.04

Now look at this entry.
Record OCCOCc1cn(CCNc2nonc2/C(=N/O)Nc2ccc(F)c(Br)c2)nn1 . Reported fraction unbound: 0.0672

====

AUC(0-t) reference
# protocolDescription: AUC (0 to t) in Sprague-Dawley rat at 50 mg/kg, po
# Type: ADME, organism-based
# Set-up: dose 50 mg/kg, route po
# conditionSummary: in vivo
Enter your answer as a number in ng·h/mL; do not include the unit.

OCCOCc1cn(CCNc2nonc2/C(=N/O)Nc2ccc(F)c(Br)c2)nn1: 3640

We next turn to a different molecule, shown below.
Looking up CC(O)c1cn(CCNc2nonc2/C(=N/O)Nc2ccc(F)c(Br)c2)nn1 (configuration not stated) , I found its AUC(0-t) recorded as 11300

====

# protocolDescription: AUC (0 to t) in Sprague-Dawley rat at 5 mg/kg, iv
# Format: ADME, organism-based
# Set-up: dose 5 mg/kg, route iv
# conditionSummary: in vivo
# key: entry, value: AUC(0-t)
Quick note: unit goes after the number.

CC(O)c1cn(CCNc2nonc2/C(=N/O)Nc2ccc(F)c(Br)c2)nn1 (configuration not stated): 5590 ng·h/mL

Lookup result for OCCOCc1cn(CCNc2nonc2/C(=N/O)Nc2ccc(F)c(Br)c2)nn1 ; measured AUC(0-t): 3040 ng·h/mL

====

# half-life values compiled below
# protocolDescription: Half life in rat liver microsomes
# Format: ADME, Microsome
Express your answer in min, writing the number without its unit.

OCCOCc1cn(CCNc2nonc2/C(=N/O)Nc2ccc(F)c(Br)c2)nn1: 21.2

Summary for this compound, CC(O)c1cn(CCNc2nonc2/C(=N/O)Nc2ccc(F)c(Br)c2)nn1 (configuration not stated) : half-life is 21.6

====

# protocolDescription: Apparent permeability across basolateral to apical side in human Caco-2 cells assessed as drug recovery
# Assay type: ADME, cell-based
# conditionSummary: read-out: Drug recovery
Overview of reported recovery across a group of compounds:
A number alone suffices; assume %.

CC(O)c1cn(CCNc2nonc2/C(=N/O)Nc2ccc(F)c(Br)c2)nn1 (configuration not stated): 116

The record that follows has no recovery shown yet.
// sample OCCOCc1cn(CCNc2nonc2/C(=N/O)Nc2ccc(F)c(Br)c2)nn1 , its recovery was 112

====

# experimentalTarget: UniProt Q12809
# Sequence (Q12809 whole entry): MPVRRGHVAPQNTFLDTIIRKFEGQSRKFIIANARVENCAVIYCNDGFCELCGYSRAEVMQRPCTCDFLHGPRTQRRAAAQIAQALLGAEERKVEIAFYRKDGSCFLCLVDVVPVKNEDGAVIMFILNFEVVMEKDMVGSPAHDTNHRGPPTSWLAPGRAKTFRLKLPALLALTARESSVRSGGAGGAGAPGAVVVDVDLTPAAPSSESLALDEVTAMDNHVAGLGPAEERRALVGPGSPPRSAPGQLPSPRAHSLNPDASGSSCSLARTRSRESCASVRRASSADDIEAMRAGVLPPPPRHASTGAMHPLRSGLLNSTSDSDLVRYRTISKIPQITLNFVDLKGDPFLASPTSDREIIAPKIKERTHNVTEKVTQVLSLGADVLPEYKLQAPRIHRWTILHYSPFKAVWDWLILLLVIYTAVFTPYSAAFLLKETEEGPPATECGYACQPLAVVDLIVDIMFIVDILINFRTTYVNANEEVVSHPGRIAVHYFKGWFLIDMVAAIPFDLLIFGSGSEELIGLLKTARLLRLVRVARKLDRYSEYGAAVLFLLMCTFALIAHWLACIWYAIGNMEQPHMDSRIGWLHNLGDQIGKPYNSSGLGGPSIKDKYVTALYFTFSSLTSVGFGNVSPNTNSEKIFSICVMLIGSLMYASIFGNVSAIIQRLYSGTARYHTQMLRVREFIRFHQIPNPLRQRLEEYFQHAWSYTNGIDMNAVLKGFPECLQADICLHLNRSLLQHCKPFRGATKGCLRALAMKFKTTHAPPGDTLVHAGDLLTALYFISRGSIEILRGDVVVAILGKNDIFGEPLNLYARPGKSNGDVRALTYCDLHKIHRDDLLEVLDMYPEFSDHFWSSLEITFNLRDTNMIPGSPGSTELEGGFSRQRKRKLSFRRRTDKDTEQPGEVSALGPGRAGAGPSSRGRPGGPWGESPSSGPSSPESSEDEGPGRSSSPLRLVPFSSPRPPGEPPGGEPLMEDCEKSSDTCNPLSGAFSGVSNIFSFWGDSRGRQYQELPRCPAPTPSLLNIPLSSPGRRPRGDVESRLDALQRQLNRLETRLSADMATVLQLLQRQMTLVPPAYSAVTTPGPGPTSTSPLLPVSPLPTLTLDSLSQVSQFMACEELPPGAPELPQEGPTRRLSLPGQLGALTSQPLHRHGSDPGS
# protocolDescription: Inhibition of human ERG
observationType: IC50

OCCOCc1cn(CCNc2nonc2/C(=N/O)Nc2ccc(F)c(Br)c2)nn1: > 30 µM

// CC(O)c1cn(CCNc2nonc2/C(=N/O)Nc2ccc(F)c(Br)c2)nn1 (configuration not stated) : IC50 value = > 30 µM

====

# protocolDescription: Protein binding in Sprague-Dawley rat plasma assessed as fraction unbound by equilibrium dialysis
# Assay type: ADME, cell-free
Below is a list of entries, each paired with its recorded fraction unbound value.

CC(O)c1cn(CCNc2nonc2/C(=N/O)Nc2ccc(F)c(Br)c2)nn1 (configuration not stated): 0.044

Proceed to the following item.
Sample OCCOCc1cn(CCNc2nonc2/C(=N/O)Nc2ccc(F)c(Br)c2)nn1 ; fraction unbound observed: 0.0672

====

# protocolDescription: Half life in mouse liver microsomes
# Assay type: ADME, Microsome
observationType: half-life (min)
# unit: min | format: bare number

CC(O)c1cn(CCNc2nonc2/C(=N/O)Nc2ccc(F)c(Br)c2)nn1 (configuration not stated): 41.2

// half-life value for OCCOCc1cn(CCNc2nonc2/C(=N/O)Nc2ccc(F)c(Br)c2)nn1 : 43.2

====

# experimentalTarget: Indoleamine 2,3-dioxygenase 1 (Homo sapiens)
# Sequence (P14902 whole entry): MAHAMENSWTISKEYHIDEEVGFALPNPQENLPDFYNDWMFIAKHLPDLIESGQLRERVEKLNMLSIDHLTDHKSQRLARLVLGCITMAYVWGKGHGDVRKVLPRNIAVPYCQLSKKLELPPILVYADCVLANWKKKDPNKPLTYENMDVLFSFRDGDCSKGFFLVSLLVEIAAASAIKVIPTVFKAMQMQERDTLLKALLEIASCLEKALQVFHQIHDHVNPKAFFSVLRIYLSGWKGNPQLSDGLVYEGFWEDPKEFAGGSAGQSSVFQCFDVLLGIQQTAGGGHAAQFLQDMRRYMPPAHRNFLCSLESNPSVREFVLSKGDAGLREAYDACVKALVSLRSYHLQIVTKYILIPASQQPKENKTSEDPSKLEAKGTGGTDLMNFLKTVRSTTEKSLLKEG
# protocolDescription: Inhibition of IDO1 (unknown origin) assessed as reduction in kynurenine formation using L-tryptophan as substrate by methylene blue reagent based assay
# binning rule on IC50: low range (below 60 nM), mid range (60 nM to below 100 nM), high range (100 nM or more)

For orientation, consider the following solved cases.
CC(C)(O)c1cn(CCNc2nonc2/C(=N/O)Nc2ccc(F)c(Br)c2)nn1: high range
CCC(O)c1cn(CCNc2nonc2/C(=N/O)Nc2ccc(F)c(Br)c2)nn1 (stereo not given): mid range
CCCCc1cn(CCNc2nonc2/C(=N/O)Nc2ccc(F)c(Br)c2)nn1: high range
O/N=C(\Nc1ccc(F)c(Br)c1)c1nonc1NCCn1cc(C2(O)CCCCC2)nn1: mid range
CC(C)(OCCO)c1cn(CCNc2nonc2/C(=N/O)Nc2ccc(F)c(Br)c2)nn1: high range

Q: Which bin, given its IC50, does OCCOCc1cn(CCNc2nonc2/C(=N/O)Nc2ccc(F)c(Br)c2)nn1 occupy?
Ans: low range

Q: Category of CC(C)CC(C)(O)c1cn(CCNc2nonc2/C(=N/O)Nc2ccc(F)c(Br)c2)nn1 (stereo not given) :
Ans: low range

Q: Which category does the recorded IC50 put CC(O)c1cn(CCNc2nonc2/C(=N/O)Nc2ccc(F)c(Br)c2)nn1 (stereo not given) in?
Ans: low range

Q: Tag the class for CCC(C)(O)c1cn(CCNc2nonc2/C(=N/O)Nc2ccc(F)c(Br)c2)nn1 (stereo not given)
Ans: low range

Q: Hello team, could you let me know which band the following compound falls into: CC(OCCO)c1cn(CCNc2nonc2/C(=N/O)Nc2ccc(F)c(Br)c2)nn1 (stereo not given)
Ans: high range

Q: Dear colleague, I would appreciate it if you could identify the bin for OCc1cn(CCNc2nonc2/C(=N/O)Nc2ccc(F)c(Br)c2)nn1 and reply at your convenience.
Ans: mid range

Q: Lab note: sort OCCCCc1cn(CCNc2nonc2/C(=N/O)Nc2ccc(F)c(Br)c2)nn1 into the matching IC50 band.
Ans: mid range

Q: For OCCc1cn(CCNc2nonc2/C(=N/O)Nc2ccc(F)c(Br)c2)nn1 , which IC50 bin applies?
Ans: high range

Q: Which IC50 category applies to CC(C)(C)c1cn(CCNc2nonc2/C(=N/O)Nc2ccc(F)c(Br)c2)nn1 here?
Ans: high range
